Biological target: human sEH (Homo sapiens, UniProt P34913)
Sequence (P34913 1-555): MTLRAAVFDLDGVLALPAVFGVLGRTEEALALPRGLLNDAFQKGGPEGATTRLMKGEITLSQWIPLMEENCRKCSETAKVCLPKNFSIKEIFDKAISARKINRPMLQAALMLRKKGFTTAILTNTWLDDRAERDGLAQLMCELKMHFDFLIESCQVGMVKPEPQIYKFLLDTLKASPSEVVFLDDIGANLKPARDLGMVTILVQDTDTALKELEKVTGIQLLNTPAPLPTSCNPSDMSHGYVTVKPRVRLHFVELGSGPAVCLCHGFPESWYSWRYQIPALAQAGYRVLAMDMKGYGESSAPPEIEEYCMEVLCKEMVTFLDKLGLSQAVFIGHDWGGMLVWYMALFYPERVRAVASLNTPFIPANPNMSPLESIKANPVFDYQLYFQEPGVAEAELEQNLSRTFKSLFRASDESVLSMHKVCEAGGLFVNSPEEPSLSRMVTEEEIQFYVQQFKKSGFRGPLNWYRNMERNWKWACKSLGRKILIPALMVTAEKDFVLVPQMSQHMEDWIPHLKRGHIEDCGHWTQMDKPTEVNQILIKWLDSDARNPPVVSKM
Test: Fluorescent
Format: biochemical
readoutName: inhibition of human sEH, result in words

O=C(NOc1ccccc1)C(=O)NC1C2CC3CC(C2)CC1C3 (stereo not drawn) [Compound 7] ... no inhibition
O=C(CNC1C2CC3CC(C2)CC1C3)NOCc1ccccc1 (stereo not drawn) [Compound 16] ... no inhibition
